Ref: paper PMC6270194

- ASSAY COMMENT: DPPH· free radical scavenging assay
- TEST CONDITIONS: DPPH· scavenging, 0.2 mM DPPH· in DMSO, absorbance 515 nm
MEASURED PROPERTY: IC50
Give me the value, and tack the unit on after it.

Previously resolved entries follow.
{"COMPOUND": "COc1ccc(/C=C/C(O)=C2\\CC/C(=C\\c3ccc(OC)cc3)C2=O)cc1 [Compound 3c]", "IC50": "340 µM"}
{"COMPOUND": "O=C1/C(=C(O)/C=C/c2ccccc2)CC/C1=C\\c1ccccc1 [Compound 3a]", "IC50": "70 µM"}

Let us move to another entry and its IC50.
Q) Output IC50 of COc1ccc(/C=C/C(O)=C2\CCC/C(=C\c3ccc(OC)cc3)C2=O)cc1 [Compound 2c]
A) 4070 µM
